TARGET_DESC: Extracellular domain (ECD) of ROR1 fused to human Fc region (UniProt Q01973)
Sequence (Q01973 30-406 limits assumed): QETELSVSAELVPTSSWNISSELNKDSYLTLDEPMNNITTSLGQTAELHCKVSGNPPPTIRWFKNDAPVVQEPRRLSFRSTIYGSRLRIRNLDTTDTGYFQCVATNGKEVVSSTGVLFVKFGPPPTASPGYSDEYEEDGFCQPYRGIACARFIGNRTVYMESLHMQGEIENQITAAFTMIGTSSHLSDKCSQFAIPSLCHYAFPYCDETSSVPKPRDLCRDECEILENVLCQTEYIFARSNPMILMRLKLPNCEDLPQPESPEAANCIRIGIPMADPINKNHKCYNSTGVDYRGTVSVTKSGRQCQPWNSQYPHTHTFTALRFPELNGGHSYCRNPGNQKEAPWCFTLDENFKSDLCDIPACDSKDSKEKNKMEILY
EXPERIMENTAL_PROTOCOL: SPR, Biacore 3000; ROR1 ECD-human Fc on CM5 chip, antibody in solution
pKd: −log10 of the molar value.
Kind request: treat 9 as inclusive, so pKd at 9 or higher is met, anything lower is not met.

Ask: Does the reported pKd for Hum ROR1_18VH_(G4S)3x_VL_14 (antibody, mouse IgG1, V domains shown, The name reads as an scFv with a (G4S)3 linker; The method text says variable regions were fused to mouse constant regions (chimeric mouse IgG1); VH/VL are tied by the numbers in the name) VH: EVQLVESGGGLVQPGGSLRLSCSASGFTFSSYAMSWVRQVPGKGLVWISSISRGGTTYYADSVRGRFIISRDNAKNTLYLEMNNLRGEDTAVYYCARYDYDGYYAMDYWGQGTLVTVSS VL: DIQMTQSPSSLSASVGDRVTITCKASPDINSYLNWYQQKPGKAPKLLIYRANRLVDGVPSRFSGSGSGTDYTLTISSLQPEDFATYYCLQYDEFPYTFGAGTKVEIK fall at or above the 9 mark?
Result: met

Ask: Does the reported pKd for Clone 05 (antibody, V domains shown, Variable regions fused to mouse constant regions (chimeric mouse IgG1 mAb) for SPR; also called hROR1 VH_05 / hROR1 VL_05) VH: EVQLVESGGGLVQPGGSLRLSCAASGFTFSSYAMSWVRQAPGKGLEWVSSISRGGTTYYPDSVKGRFTISRDNSKNTLYLQMNSLRAEDTAVYYCGRYDYDGYYAMDYWGQGTLVTVSS VL: DIQMTQSPSSLSASVGDRVTITCKASPDINSYLSWYQQKPGKAPKLLIYRANRLVDGVPSRFSGSGSGTDFTLTISSLQPEDIATYYCLQYDEFPYTFGQGTKLEIK fall at or above the 9 mark?
Result: not met

Where these numbers come from: patent US20260035432A1
